src = patent US11685732B2

# system: KAT-5 (Homo sapiens (Human))
# Sequence (Q92993 other isoform, or with tags, fused parts or gaps): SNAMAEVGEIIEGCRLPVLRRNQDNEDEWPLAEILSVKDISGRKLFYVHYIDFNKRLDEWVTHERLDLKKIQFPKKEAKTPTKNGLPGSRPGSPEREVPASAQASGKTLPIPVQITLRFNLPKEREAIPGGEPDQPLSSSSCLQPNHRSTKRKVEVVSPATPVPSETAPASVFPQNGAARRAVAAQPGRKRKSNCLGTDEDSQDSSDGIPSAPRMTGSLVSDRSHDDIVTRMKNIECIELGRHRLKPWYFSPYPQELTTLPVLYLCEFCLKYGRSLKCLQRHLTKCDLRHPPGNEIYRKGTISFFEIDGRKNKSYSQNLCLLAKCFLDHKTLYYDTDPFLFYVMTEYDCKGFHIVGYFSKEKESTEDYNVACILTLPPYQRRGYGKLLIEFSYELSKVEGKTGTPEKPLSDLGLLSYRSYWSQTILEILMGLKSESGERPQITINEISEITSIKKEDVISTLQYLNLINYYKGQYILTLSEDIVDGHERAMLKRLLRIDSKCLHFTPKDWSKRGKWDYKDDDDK
# method.notes: KAT-5 biochemical inhibition assay (SAMDI mass spectrometry)
Listed here: items and their measured IC50.

Cn1cnc(-c2cc(F)c(F)c(C(=O)NNS(=O)(=O)C3CCOCC3)c2)c1	10 to 50 µM

Here is the next item to consider.
Input Cn1cnc(-c2cc(Cl)c(F)c(C(=O)NNS(=O)(=O)CC3CC4CC4C3)c2)c1 (stereo not drawn) , output reported IC50.
< 10 µM

----------
# system: KAT-5 (Homo sapiens (Human))
# method.notes: KAT-5 biochemical inhibition assay (SAMDI mass spectrometry)
The entries below come with measured IC50 values attached.

Record excerpt, results attached:
Cn1cnc(-c2cc(Cl)c(F)c(C(=O)NNS(=O)(=O)CC3CCC(NC(=O)N4CCCCC4)C3)c2)c1 (stereo not shown)	< 10 µM
COCCn1nc(-c2cc(Cl)c(F)c(C(=O)NNS(=O)(=O)CC3CCCCC3)c2)cc1C	10 to 50 µM

Given Cn1cnc(-c2cc(Cl)c(F)c(C(=O)NNS(=O)(=O)c3cccc(NCc4ccccc4)n3)c2)c1 , respond with its IC50.
< 10 µM

Find the measured IC50 of CCNC(=O)N[C@H]1CCC[C@H](CS(=O)(=O)NNC(=O)c2cc(-c3cn(C)cn3)cc(Cl)c2F)C1 and report it.
< 10 µM
